A collection of molecules and their measured pEC50
Organism: Cavia porcellus
Experiment: Tested in vitro for tracheal relaxation
Format: functional
Details: Trachea
pEC50: −log10 of the molar value.
ENDPOINT_LABEL: pEC50

MOLECULE: CCCn1c(=O)n2nnnc2c2[nH]cnc21
ENDPOINT_LABEL: pEC50
LT_GT_EQ: <
NUMERIC_READOUT: 4.00
--
MOLECULE: CCCN1C(=O)N2CCN=C2c2[nH]cnc21
ENDPOINT_LABEL: pEC50
LT_GT_EQ: =
NUMERIC_READOUT: 4.51
--
MOLECULE: CCCn1cnc2c1n(CCC)c(=O)n1ccnc21
ENDPOINT_LABEL: pEC50
LT_GT_EQ: =
NUMERIC_READOUT: 6.30
--
MOLECULE: CCCN1C(=O)N2CCCCN=C2c2ncn(CCC)c21
ENDPOINT_LABEL: pEC50
LT_GT_EQ: =
NUMERIC_READOUT: 5.60
--
MOLECULE: CCCN1C(=O)N2CCN=C2c2c1ncn2CCC
ENDPOINT_LABEL: pEC50
LT_GT_EQ: =
NUMERIC_READOUT: 5.60
--
MOLECULE: Nc1cc(-c2ccncc2)c[nH]c1=O
ENDPOINT_LABEL: pEC50
LT_GT_EQ: =
NUMERIC_READOUT: 5.13
--
MOLECULE: CCCN1C(=O)N2CCCN=C2c2ncn(CCC)c21
ENDPOINT_LABEL: pEC50
LT_GT_EQ: =
NUMERIC_READOUT: 5.68
